target: AURKB (human) (UniProt Q96GD4); assay: KINOMEscan competition binding; conditions: compound 10.0 µM
Sequence (Q96GD4 whole entry, looked up): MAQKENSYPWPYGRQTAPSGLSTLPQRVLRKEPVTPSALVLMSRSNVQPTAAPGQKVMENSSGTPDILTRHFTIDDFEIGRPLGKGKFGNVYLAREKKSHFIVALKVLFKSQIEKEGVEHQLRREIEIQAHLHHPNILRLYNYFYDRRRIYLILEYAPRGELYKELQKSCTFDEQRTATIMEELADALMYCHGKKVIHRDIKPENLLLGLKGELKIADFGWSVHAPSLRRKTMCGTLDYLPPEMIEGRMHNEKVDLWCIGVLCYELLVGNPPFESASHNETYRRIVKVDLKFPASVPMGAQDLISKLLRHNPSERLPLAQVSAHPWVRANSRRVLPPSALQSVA
measured parameter: kinase still bound, per cent of control (%)
Could you give me the number in %? Just the number is fine.

# count of solved cases: 3
CC1=C(C(=O)Nc2cc3cn[nH]c3cc2F)C(c2ccc(C(F)(F)F)cc2)CC(=O)N1 (stereo not given); 42
N#Cc1cc(-c2ccnc(Nc3ccc(-n4cnc(-c5cccnc5)n4)cc3)n2)cc(N2CCOCC2)c1; 57
CC(=O)c1c(C)c2cnc(Nc3ccc(N4CCNCC4)cn3)nc2n(C2CCCC2)c1=O; 48

query: // query kinase still bound, per cent of control value for entry COc1cc2c(Nc3ccc(NC(=O)c4ccccc4)cc3)ncnc2cc1OCCCN1CCOCC1
result: 0.15

query: // query kinase still bound, per cent of control value for entry O=c1[nH]c2ccccc2n1C1CCN(Cc2ccc(-c3nc4cc5[nH]cnc5cc4nc3-c3ccccc3)cc2)CC1
result: 91

###

molecular target: CAMKK2 (human) (UniProt Q96RR4); assay: KINOMEscan competition binding; conditions: compound 10.0 µM
Sequence (Q96RR4 whole entry, looked up): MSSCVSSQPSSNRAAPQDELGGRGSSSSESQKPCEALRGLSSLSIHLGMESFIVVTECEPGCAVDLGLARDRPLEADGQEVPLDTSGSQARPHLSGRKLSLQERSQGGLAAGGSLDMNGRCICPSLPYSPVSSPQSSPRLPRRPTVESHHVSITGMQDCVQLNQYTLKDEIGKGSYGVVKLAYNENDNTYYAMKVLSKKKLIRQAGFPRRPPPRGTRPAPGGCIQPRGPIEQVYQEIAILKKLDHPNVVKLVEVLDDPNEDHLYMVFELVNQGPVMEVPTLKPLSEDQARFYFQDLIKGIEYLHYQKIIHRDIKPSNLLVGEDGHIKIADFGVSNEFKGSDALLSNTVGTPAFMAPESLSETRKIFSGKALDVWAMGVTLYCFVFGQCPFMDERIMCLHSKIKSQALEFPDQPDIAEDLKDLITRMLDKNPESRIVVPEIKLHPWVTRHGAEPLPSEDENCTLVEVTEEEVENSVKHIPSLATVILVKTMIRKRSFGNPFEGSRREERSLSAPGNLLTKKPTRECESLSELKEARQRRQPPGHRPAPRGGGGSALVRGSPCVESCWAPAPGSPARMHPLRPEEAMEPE
Kindly apply the following: Met if kinase still bound, per cent of control is less than 50%, Not met in every other case.

C=CC(=O)Nc1ccc(C(=O)c2sc(Nc3ccc(N4CCN(C)CC4)cc3OC)nc2N)cc1; Met
COc1cc(N2CCC(C(N)=O)CC2)ccc1Nc1nc(N)c(Cl)c(Nc2ccccc2S(=O)(=O)C(C)C)n1; Met
CCc1nc(-c2cccc(C)c2)c(-c2ccnc(NC(=O)c3ccccc3)c2)s1; Not met
CCOc1cc(N2CCC(O)CC2)ccc1Nc1ncc2c(n1)N(C)c1ccccc1C(=O)N2C; Not met
N#Cc1cc(-c2ccnc(Nc3ccc(-n4cnc(-c5cccnc5)n4)cc3)n2)cc(N2CCOCC2)c1; Not met
CC(=O)c1c(C)c2cnc(Nc3ccc(N4CCNCC4)cn3)nc2n(C2CCCC2)c1=O; Met
COc1cc2c(Nc3ccc(NC(=O)c4ccccc4)cc3)ncnc2cc1OCCCN1CCOCC1; Not met
N#C/C(=C1/Nc2ccccc2S1)c1ccnc(NCCc2cccnc2)n1; Not met

In the following, a different compound is considered.
query: is_below(kinase still bound, per cent of control, 50%) for COc1ccc(N(C(=O)Oc2cc(C(=O)Nc3cccc(C(F)(F)F)c3)ccc2C)c2ccnc(Nc3ccc(N4CCN(C)CC4)cc3)n2)c(OC)c1 ?
result: Not met

###

target: CHEK1 (human); assay: KINOMEscan competition binding; conditions: compound 10.0 µM
We begin with a simple list: items and their reported kinase still bound, per cent of control.
Could you give me the number in %? Just the number is fine.

# count of solved cases: 4
CC(=O)c1c(C)c2cnc(Nc3ccc(N4CCNCC4)cn3)nc2n(C2CCCC2)c1=O; 20
Cc1cn(-c2cc(C(=O)Nc3ccc(C)c(NC(=O)c4ccno4)c3)cc(C(F)(F)F)c2)cn1; 100
N#Cc1cc(-c2ccnc(Nc3ccc(-n4cnc(-c5cccnc5)n4)cc3)n2)cc(N2CCOCC2)c1; 100
O=c1[nH]c2ccccc2n1C1CCN(Cc2ccc(-c3nc4cc5[nH]cnc5cc4nc3-c3ccccc3)cc2)CC1; 100

query: Entry COc1cc2ncnc(Nc3cccc(Cl)c3)c2cc1OC , system CHEK1 (human): what kinase still bound, per cent of control was measured?
result: 100

query: Entry N#C/C(=C1/Nc2ccccc2S1)c1ccnc(NCCc2cccnc2)n1 , system CHEK1 (human): what kinase still bound, per cent of control was measured?
result: 100

query: Entry COc1cc(C)c(Sc2cnc(NC(=O)c3ccc(CNC(C)C(C)C)cc3)s2)cc1C(=O)N1CCN(C(C)=O)CC1 (configuration not stated) , system CHEK1 (human): what kinase still bound, per cent of control was measured?
result: 100

query: Entry CCN1CCN(Cc2ccc(NC(=O)c3ccc(C)c(/C=C/c4cnc5[nH]ccc5c4OC)c3)cc2C(F)(F)F)CC1 , system CHEK1 (human): what kinase still bound, per cent of control was measured?
result: 28

query: Entry CCc1nc(-c2cccc(C)c2)c(-c2ccnc(NC(=O)c3ccccc3)c2)s1 , system CHEK1 (human): what kinase still bound, per cent of control was measured?
result: 77

query: Entry CCOc1cc(N2CCC(O)CC2)ccc1Nc1ncc2c(n1)N(C)c1ccccc1C(=O)N2C , system CHEK1 (human): what kinase still bound, per cent of control was measured?
result: 100

query: Entry COc1cc(N2CCC(C(N)=O)CC2)ccc1Nc1nc(N)c(Cl)c(Nc2ccccc2S(=O)(=O)C(C)C)n1 , system CHEK1 (human): what kinase still bound, per cent of control was measured?
result: 100

query: Entry CC1=C(C(=O)Nc2cc3cn[nH]c3cc2F)C(c2ccc(C(F)(F)F)cc2)CC(=O)N1 (configuration not stated) , system CHEK1 (human): what kinase still bound, per cent of control was measured?
result: 100

query: Entry C=CC(=O)Nc1ccc(C(=O)c2sc(Nc3ccc(N4CCN(C)CC4)cc3OC)nc2N)cc1 , system CHEK1 (human): what kinase still bound, per cent of control was measured?
result: 73

query: Entry CCCS(=O)(=O)Nc1ccc(F)c(C(=O)c2c[nH]c3ncc(Cl)cc23)c1F , system CHEK1 (human): what kinase still bound, per cent of control was measured?
result: 82

query: Entry CNC(=O)Nc1ccc(-c2nc(N3CC4CCC(C3)O4)c3cnn(C4CCC5(CC4)OCCO5)c3n2)cc1 , system CHEK1 (human): what kinase still bound, per cent of control was measured?
result: 100

query: Entry COc1ccc(N(C(=O)Oc2cc(C(=O)Nc3cccc(C(F)(F)F)c3)ccc2C)c2ccnc(Nc3ccc(N4CCN(C)CC4)cc3)n2)c(OC)c1 , system CHEK1 (human): what kinase still bound, per cent of control was measured?
result: 100

query: Entry COc1cc2c(Nc3ccc(NC(=O)c4ccccc4)cc3)ncnc2cc1OCCCN1CCOCC1 , system CHEK1 (human): what kinase still bound, per cent of control was measured?
result: 100

###

We begin with a simple list: items and their reported kinase still bound, per cent of control.
target: SIK2 (human); assay: KINOMEscan competition binding; conditions: compound 10.0 µM
Could you give me the number in %? Just the number is fine.

# count of solved cases: 3
O=c1[nH]c2ccccc2n1C1CCN(Cc2ccc(-c3nc4cc5[nH]cnc5cc4nc3-c3ccccc3)cc2)CC1; 85
COc1ccc(N(C(=O)Oc2cc(C(=O)Nc3cccc(C(F)(F)F)c3)ccc2C)c2ccnc(Nc3ccc(N4CCN(C)CC4)cc3)n2)c(OC)c1; 1.9
CCN(CCO)CCCOc1ccc2c(Nc3cc(CC(=O)Nc4cccc(F)c4)[nH]n3)ncnc2c1; 70

From here, focus on the item given below.
query: // query kinase still bound, per cent of control value for entry COc1cc(C)c(Sc2cnc(NC(=O)c3ccc(CNC(C)C(C)C)cc3)s2)cc1C(=O)N1CCN(C(C)=O)CC1 (stereo not drawn)
result: 100

###

We begin with a simple list: items and their reported kinase still bound, per cent of control.
molecular target: MAPK12 (human) (UniProt P53778); assay: KINOMEscan competition binding; details: compound 10.0 µM
Sequence (P53778 whole entry, looked up): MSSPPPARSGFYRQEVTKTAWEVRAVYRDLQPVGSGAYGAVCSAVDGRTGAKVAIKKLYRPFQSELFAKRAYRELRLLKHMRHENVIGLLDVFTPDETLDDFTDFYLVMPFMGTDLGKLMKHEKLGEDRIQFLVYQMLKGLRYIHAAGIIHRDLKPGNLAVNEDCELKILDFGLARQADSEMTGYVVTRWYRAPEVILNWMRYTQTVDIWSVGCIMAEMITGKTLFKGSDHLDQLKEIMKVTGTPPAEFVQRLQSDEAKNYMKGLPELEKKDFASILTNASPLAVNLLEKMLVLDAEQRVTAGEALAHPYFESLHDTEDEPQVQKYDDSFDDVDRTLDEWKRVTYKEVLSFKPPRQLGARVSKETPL
Could you give me the number in %? Just the number is fine.

# count of solved cases: 8
C=CC(=O)Nc1ccc(C(=O)c2sc(Nc3ccc(N4CCN(C)CC4)cc3OC)nc2N)cc1; 100
COc1ccc(N(C(=O)Oc2cc(C(=O)Nc3cccc(C(F)(F)F)c3)ccc2C)c2ccnc(Nc3ccc(N4CCN(C)CC4)cc3)n2)c(OC)c1; 100
N#C/C(=C1/Nc2ccccc2S1)c1ccnc(NCCc2cccnc2)n1; 13
CCOc1cc(N2CCC(O)CC2)ccc1Nc1ncc2c(n1)N(C)c1ccccc1C(=O)N2C; 100
CCN(CCO)CCCOc1ccc2c(Nc3cc(CC(=O)Nc4cccc(F)c4)[nH]n3)ncnc2c1; 89
COc1cc(C)c(Sc2cnc(NC(=O)c3ccc(CNC(C)C(C)C)cc3)s2)cc1C(=O)N1CCN(C(C)=O)CC1 (centres undefined); 100
CC1=C(C(=O)Nc2cc3cn[nH]c3cc2F)C(c2ccc(C(F)(F)F)cc2)CC(=O)N1 (centres undefined); 79
CCc1nc(-c2cccc(C)c2)c(-c2ccnc(NC(=O)c3ccccc3)c2)s1; 100

From here, focus on the item given below.
query: // query kinase still bound, per cent of control value for entry O=c1[nH]c2ccccc2n1C1CCN(Cc2ccc(-c3nc4cc5[nH]cnc5cc4nc3-c3ccccc3)cc2)CC1
result: 98

###

molecular target: IKBKB (human); assay: KINOMEscan competition binding; details: compound 10.0 µM
measured parameter: kinase still bound, per cent of control (%)
Could you give me the number in %? Just the number is fine.

query: // query kinase still bound, per cent of control value for entry CC1=C(C(=O)Nc2cc3cn[nH]c3cc2F)C(c2ccc(C(F)(F)F)cc2)CC(=O)N1 (centres undefined)
result: 86

###

biological target: DAPK1 (human) (UniProt P53355); test: KINOMEscan competition binding; conditions: compound 10.0 µM
Sequence (P53355 whole entry, looked up): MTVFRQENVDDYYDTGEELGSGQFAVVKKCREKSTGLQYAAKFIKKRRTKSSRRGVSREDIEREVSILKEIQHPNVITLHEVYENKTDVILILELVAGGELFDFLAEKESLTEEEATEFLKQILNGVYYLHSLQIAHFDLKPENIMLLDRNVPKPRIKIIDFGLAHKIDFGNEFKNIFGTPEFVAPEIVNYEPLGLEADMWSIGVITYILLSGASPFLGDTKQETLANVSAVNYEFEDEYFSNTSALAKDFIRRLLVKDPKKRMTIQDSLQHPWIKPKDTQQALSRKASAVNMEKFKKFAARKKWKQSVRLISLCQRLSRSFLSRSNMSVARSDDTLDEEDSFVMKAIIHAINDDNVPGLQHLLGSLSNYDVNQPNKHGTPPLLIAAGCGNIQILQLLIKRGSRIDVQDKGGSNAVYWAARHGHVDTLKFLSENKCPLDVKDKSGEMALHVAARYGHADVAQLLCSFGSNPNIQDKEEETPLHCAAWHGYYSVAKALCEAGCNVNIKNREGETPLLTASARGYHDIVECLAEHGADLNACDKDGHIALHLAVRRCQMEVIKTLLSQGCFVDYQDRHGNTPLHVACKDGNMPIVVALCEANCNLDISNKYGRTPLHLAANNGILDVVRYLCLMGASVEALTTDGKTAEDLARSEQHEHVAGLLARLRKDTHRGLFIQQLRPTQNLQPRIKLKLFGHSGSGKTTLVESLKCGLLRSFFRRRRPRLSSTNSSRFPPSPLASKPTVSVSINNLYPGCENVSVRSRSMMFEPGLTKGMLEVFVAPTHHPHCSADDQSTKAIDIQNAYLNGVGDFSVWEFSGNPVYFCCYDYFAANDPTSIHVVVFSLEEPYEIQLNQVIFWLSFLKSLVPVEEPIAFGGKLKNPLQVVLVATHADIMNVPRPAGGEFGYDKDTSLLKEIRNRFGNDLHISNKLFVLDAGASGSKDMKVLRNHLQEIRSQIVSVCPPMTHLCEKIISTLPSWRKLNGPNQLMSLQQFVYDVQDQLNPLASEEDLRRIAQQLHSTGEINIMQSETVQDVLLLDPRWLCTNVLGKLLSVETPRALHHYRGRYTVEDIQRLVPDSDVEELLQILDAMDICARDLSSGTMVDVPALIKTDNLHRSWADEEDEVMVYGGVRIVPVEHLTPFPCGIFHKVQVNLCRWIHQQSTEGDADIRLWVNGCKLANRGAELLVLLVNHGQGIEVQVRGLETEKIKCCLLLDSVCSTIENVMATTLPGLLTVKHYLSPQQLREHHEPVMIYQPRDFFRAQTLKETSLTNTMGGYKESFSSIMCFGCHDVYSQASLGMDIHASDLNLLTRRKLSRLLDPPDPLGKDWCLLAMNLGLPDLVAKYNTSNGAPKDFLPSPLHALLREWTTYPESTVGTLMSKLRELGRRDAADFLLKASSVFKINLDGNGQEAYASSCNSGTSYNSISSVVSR
Kindly apply the following: condition met if kinase still bound, per cent of control is less than 80%, condition not met in every other case.

These solved cases illustrate the format of a correct answer.
COc1cc2ncnc(Nc3cccc(Cl)c3)c2cc1OC; condition met
CCc1nc(-c2cccc(C)c2)c(-c2ccnc(NC(=O)c3ccccc3)c2)s1; condition met

query: is_below(kinase still bound, per cent of control, 80%) for CCCS(=O)(=O)Nc1ccc(F)c(C(=O)c2c[nH]c3ncc(Cl)cc23)c1F ?
result: condition not met

query: is_below(kinase still bound, per cent of control, 80%) for COc1ccc(N(C(=O)Oc2cc(C(=O)Nc3cccc(C(F)(F)F)c3)ccc2C)c2ccnc(Nc3ccc(N4CCN(C)CC4)cc3)n2)c(OC)c1 ?
result: condition not met
